Entries and their half-life values follow.
assay: in vivo; details: male, CD1, mouse, po, 30 mg/kg
Answer format: value, then unit.

- compound: "Cc1nc(Nc2ncc(C(=O)Nc3c(C)csc3Cl)s2)cc(N2CCN(CCO)CC2)n1"
  measurement.label: "half-life"
  result: "1.42 h"

Given the entry Cc1nc(Nc2ncc(C(=O)Nc3c(CF)csc3Cl)s2)cc(N2CCN(C)C(C)C2)n1 (racemic) , report its measured half-life.
4.35 h

And what about the compound Cc1nc(Nc2ncc(C(=O)Nc3c(C(F)F)csc3Cl)s2)cc(N2CCN(CCO)CC2)n1 ?
4.49 h

And what about the compound Cc1nc(Nc2ncc(C(=O)Nc3c(CF)csc3Cl)s2)cc(N2CCN(C)CC2)n1 ?
2.76 h
